src = ChEMBL document CHEMBL5385863

EXPERIMENTAL TARGET: UniProt:O53289
Sequence (O53289 whole entry): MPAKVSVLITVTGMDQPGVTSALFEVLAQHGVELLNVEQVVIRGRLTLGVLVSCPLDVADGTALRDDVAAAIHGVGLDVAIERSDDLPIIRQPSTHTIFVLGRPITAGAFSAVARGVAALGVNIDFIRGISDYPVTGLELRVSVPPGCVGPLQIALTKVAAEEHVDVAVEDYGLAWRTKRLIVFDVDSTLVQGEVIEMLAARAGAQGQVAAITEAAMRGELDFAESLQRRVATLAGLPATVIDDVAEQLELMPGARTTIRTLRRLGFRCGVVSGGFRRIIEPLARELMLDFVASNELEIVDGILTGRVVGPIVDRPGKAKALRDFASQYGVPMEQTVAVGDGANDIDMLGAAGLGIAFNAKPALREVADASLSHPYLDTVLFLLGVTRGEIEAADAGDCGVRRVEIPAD
ASSAY SUMMARY: Binding affinity to Mycobacterium tuberculosis SerB2 expressed in Escherichia coli BL21 (DE3) cells assessed as protein destabilization at 4 mM by differential scanning fluorimetry
Calls of active or inactive are those of the source. No cut-off for these calls is given here.
Please state which outcome applies, choosing from t (active), f (inactive)

Query block: Each molecule tested received a call. Report the one for NC(=O)NO .
Result block: t

***
Query block: Each molecule tested received a call. Report the one for N[C@@H](CCS(=O)(=O)O)C(=O)O .
Result block: t

Query block: Follow-up entry: Cc1cc(C2CCCCC2)n(O)c(=O)c1
Result block: t

Query block: Follow-up entry: O=P(O)(O)C(O)(Cn1ccnc1)P(=O)(O)O
Result block: t

Query block: Follow-up entry: Nc1ccc(O)cc1
Result block: f
